Collected GI50 values appear next to each entry.
tested on: Ba/F3-EGFR ins. SVD cells; experiment: Cell proliferation suppression test (CellTiter-Glo, GI50), Ba/F3-EGFR ins. SVD; format: cell-based; settings: Mus musculus, 72 h, 3 days, N=4

compound	GI50 (nM)
C=CC(=O)N1CCC(Oc2cc3c(Nc4ccc(Oc5cccc(-c6nnc(C)o6)c5)cc4Cl)ncnc3cc2OC)CC1 [Example 13]	54.1
CCOc1cc2ncnc(Nc3ccc(Oc4cccc(-c5nnc(C)o5)c4)cc3F)c2cc1NC(=O)/C=C/CN(C)C [Example 40]	32.9
[2H]C([2H])([2H])Oc1cc2ncnc(Nc3ccc(Oc4ccn(C(=O)NC(C)(C)C)n4)cc3F)c2cc1OC1CCN(C(=O)C=C)CC1 [Example 20]	9
C=CC(=O)N1CCC(Oc2cc3c(Nc4ccc(Oc5nc(-c6ccc(CC)nc6)cs5)cc4F)ncnc3cc2OC)CC1 [Example 34]	13.7
C=CC(=O)N1CCC(Oc2cc3c(Nc4ccc(Oc5cccc(-c6nnc(C)o6)c5)cc4F)ncnc3cc2OCC)CC1 [Example 18]	12.2
C=CC(=O)N1CCC(Oc2cc3c(Nc4ccc(Oc5ccn(-c6ccc(C)nc6)n5)cc4F)ncnc3cc2OC)CC1 [Example 28]	12.1
C=CC(=O)N1CCC(Oc2cc3c(Nc4ccc(Oc5nc(-c6cnc(C)c(Cl)c6)cs5)cc4F)ncnc3cc2OC)CC1 [Example 12]	29.8
COc1cc2ncnc(Nc3ccc(Oc4nn(CC(=O)NC(C)(C)C)cc4F)cc3F)c2cc1NC(=O)/C=C/CN1CC(OC)C1 [Example 60]	10.7
C=CC(=O)N1CCC(Oc2cc3c(Nc4ccc(Oc5ccn(-c6ccnc(F)c6)n5)cc4F)ncnc3cc2OC)CC1 [Example 30]	14
C=CC(=O)N1CCC(Oc2cc3c(Nc4ccc(Oc5ccn(-c6ccc(C7CC7)nc6)n5)cc4F)ncnc3cc2OC)CC1 [Example 31]	12.8
C=CC(=O)N1CCC(Oc2cc3c(Nc4ccc(Oc5nc(-c6cnc(OC)nc6)cs5)cc4F)ncnc3cc2OC)CC1 [Example 16]	11.3
C=CC(=O)N1CCC(Oc2cc3c(Nc4ccc(Oc5cccc(-c6nnc(C)o6)c5)cc4F)ncnc3cc2OC)CC1 [Example 17]	8
C=CC(=O)N1CCC(Oc2cc3c(Nc4ccc(Oc5ccn(C(=O)NC(C)(C)CF)n5)cc4F)ncnc3cc2OC)CC1 [Example 5]	4.3
COc1cc2ncnc(Nc3ccc(Oc4nn(CC(=O)NC(C)(C)C)cc4F)cc3F)c2cc1NC(=O)/C=C/CN1CCC(F)C1 (racemic) [Example 58]	6.7
